Target Entity: UniProt P32305
Cut-off 50 nM on Ki: below means Y, at or above means N.

Field: below-cutoff. Rule: recorded Ki strictly less than 50 nM. Subject: `COc1ccc2c(c1)c(CCN(C)C)cn2C`
N

What do you get for `CCN(CCCN1CCc2cc(OC)ccc2C1)S(=O)(=O)c1ccc(OC)cc1` ?
Y

And the next one, `COc1ccc(S(=O)(=O)NCCCN2CCN(c3ccccc3OC)CC2)cc1` ?
N

Note, next up: `COc1ccc2c(c1)CCN(CCCNS(=O)(=O)c1ccccc1)C2`
N

Proceed to `COc1ccc2[nH]cc(C3=CCN(Cc4ccccc4)CC3)c2c1`
N

Again, but for `CCN(CCCN1CCc2cc(OC)ccc2C1)S(=O)(=O)c1ccccc1`
N

Further, for `CC1CCN(CC[C@H]2CCCN2S(=O)(=O)c2cccc3ccccc23)CC1` ?
Y

Let us now turn to `COc1ccccc1N1CCN(CCNS(=O)(=O)c2ccc(C)cc2)CC1`
N

Now this one: `CCN(CCCN1CCc2cc(OC)ccc2C1)S(=O)(=O)c1cccc2ccccc12`
Y

----------
Procedure Summary: Partition coefficient (logP)
Format: physicochemical
Condition Context: octanol/water; read-out: logP
Lab note: anything with logP at or over 3 counts as 1.0; the rest go in 0.0.

State whether the measured logP reaches 3, counting equality as reaching it, for `COc1ccc2c(c1)N(CCN(C)C)CCO2`
0.0

Check `CC1CCN(CC[C@H]2CCCN2S(=O)(=O)c2cccc(O)c2)CC1` too.
0.0

// same read-out, input: `COc1ccc(S(=O)(=O)NCCCN2CCN(c3ccccc3OC)CC2)cc1`
0.0

Field entry: `COc1ccc2[nH]cc(C3=CCN(Cc4ccccc4)CC3)c2c1`
1.0

Okay, and `CC1CCN(CC[C@H]2CCCN2S(=O)(=O)c2cccc3ccccc23)CC1` ?
1.0

// repeat for `CCN(CCCN1CCc2cc(OC)ccc2C1)S(=O)(=O)c1cccc2ccccc12` and report
1.0

Can you handle `CCN(CCCN1CCc2cc(OC)ccc2C1)S(=O)(=O)c1ccccc1` next?
1.0

What about this molecule? `COc1ccc(S(=O)(=O)NCCCN2CCc3cc(OC)ccc3C2)cc1`
0.0

Another molecule to look at: `COc1ccccc1N1CCN(CCCNS(=O)(=O)c2ccc(C)cc2)CC1`
0.0

Thanks! And `COc1ccc2c(c1)CCN(CCCNS(=O)(=O)c1cccc3ccccc13)C2` ?
1.0

Also need `CCN(CCCN1CCc2cc(OC)ccc2C1)S(=O)(=O)c1ccc(C)cc1` , thanks.
1.0

----------
Target Entity: 5-hydroxytryptamine receptor 7 (Rattus norvegicus) (UniProt P32305)
Sequence (P32305 whole entry): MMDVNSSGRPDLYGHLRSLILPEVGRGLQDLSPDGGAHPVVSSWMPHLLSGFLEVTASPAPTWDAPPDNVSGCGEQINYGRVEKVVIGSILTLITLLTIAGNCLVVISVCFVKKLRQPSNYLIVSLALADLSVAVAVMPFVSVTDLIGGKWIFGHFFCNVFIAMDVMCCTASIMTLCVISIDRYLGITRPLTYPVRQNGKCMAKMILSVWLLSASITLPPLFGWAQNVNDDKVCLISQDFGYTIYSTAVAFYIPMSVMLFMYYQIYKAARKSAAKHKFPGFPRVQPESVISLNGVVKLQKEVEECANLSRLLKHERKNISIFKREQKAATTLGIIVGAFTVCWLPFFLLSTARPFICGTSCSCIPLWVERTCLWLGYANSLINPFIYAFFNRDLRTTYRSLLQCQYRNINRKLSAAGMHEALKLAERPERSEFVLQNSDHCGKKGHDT
Procedure Summary: Effect on basal adenylate cyclase activity relative to potency of methiothepin using rat 5-HT7 receptor expressed in HEK cells
Assay type: cell-based
Condition Context: HEK293
Threshold rule: cAMP greater than or equal to -70% is class 1; below that, class 0.

Textbook exercise: given the entry `COc1ccc2c(c1)c(CCN(C)C)cn2C` , state whether its cAMP is greater than or equal to -70%.
class 1

Next molecule: `CCN(CCCN1CCc2cc(OC)ccc2C1)S(=O)(=O)c1ccccc1`
class 0

Same again, this time with `CCN(CCCN1CCc2cc(OC)ccc2C1)S(=O)(=O)c1cccc2ccccc12`
class 0

Same lookup for `CCN(CCCN1CCN(c2ccccc2OC)CC1)S(=O)(=O)c1ccc(C)cc1` , please.
class 0

// query: `COc1ccc2c(c1)CCN(CCCNS(=O)(=O)c1cccc3ccccc13)C2`
class 0

Ok, now `CSc1ccc2c(c1)[C@@H](N1CCN(C)CC1)Cc1ccccc1S2`
class 0

Try `COc1ccc2c(c1)CCN(CCCNS(=O)(=O)c1ccccc1)C2` next.
class 1

Quick one: `COc1ccccc1N1CCN(CCNS(=O)(=O)c2ccc(C)cc2)CC1`
class 1

Now try `COc1ccc2[nH]cc(C3=CCN(Cc4ccccc4)CC3)c2c1` .
class 1

Also check `COc1ccc(S(=O)(=O)NCCCN2CCN(c3ccccc3OC)CC2)cc1`
class 1

What do you get for `COc1ccc2c(c1)CCN(CCCNS(=O)(=O)c1ccc(C)cc1)C2` ?
class 1

----------
Procedure Summary: pKa
Format: physicochemical
Record form. Attribute: pKa. Fill in for each entry.
// no unit string in output, number only

Which pKa reading was recorded for the molecule `CCN(CCCN1CCc2cc(OC)ccc2C1)S(=O)(=O)c1cccc2ccccc12` ?
7.4

Param item: `COc1ccc(S(=O)(=O)NCCCN2CCc3cc(OC)ccc3C2)cc1`
7

Follow-up entry: `CCN(CCCN1CCc2cc(OC)ccc2C1)S(=O)(=O)c1ccc(C)cc1`
7.4

Field entry: `COc1ccc2c(c1)c(CCN(C)C)cn2C`
9.2

Subsequent entry: `CC1CCN(CC[C@H]2CCCN2S(=O)(=O)c2cccc3ccccc23)CC1`
10.4

And `COc1ccccc1N1CCN(CCCNS(=O)(=O)c2ccc(C)cc2)CC1` ?
7.5

Would you kindly repeat that for `CCN(CCCN1CCc2cc(OC)ccc2C1)S(=O)(=O)c1ccc(OC)cc1` ?
7.4

Then `COc1ccc2c(c1)N(CCN(C)C)CCO2` ?
8.6

Request: `CC1CCN(CC[C@H]2CCCN2S(=O)(=O)c2cccc(O)c2)CC1`
10.4

Here is the next molecule: `COc1ccc2c(c1)CCN(CCCNS(=O)(=O)c1cccc3ccccc13)C2`
7

Next molecule: `COc1ccc2[nH]cc(C3=CCN(Cc4ccccc4)CC3)c2c1`
7.7

# repeat for `COc1ccccc1N1CCN(CCNS(=O)(=O)c2ccc(C)cc2)CC1`
7.4

How about this molecule: `COc1ccc2c(c1)CCN(CCCNS(=O)(=O)c1ccccc1)C2`
7

And for `Cc1cccc(S(=O)(=O)N2CCC[C@@H]2CCN2CCC(C)CC2)c1` ?
10.4

Another molecule to check: `CSc1ccc2c(c1)[C@@H](N1CCN(C)CC1)Cc1ccccc1S2`
8.1

// query: `COc1ccc2c(c1)CCN(CCCNS(=O)(=O)c1ccc(C)cc1)C2`
7

Lookup `CCN(CCCN1CCc2cc(OC)ccc2C1)S(=O)(=O)c1ccccc1`
7.4

Same question for `COc1ccc(S(=O)(=O)NCCCN2CCN(c3ccccc3OC)CC2)cc1` please.
7.5

----------
Can you tell me cAMP for the items I'm about to list?
Target Entity: 5-hydroxytryptamine receptor 7 (Rattus norvegicus) (UniProt P32305)
Procedure Summary: Effect on basal adenylate cyclase activity relative to potency of methiothepin using rat 5-HT7 receptor expressed in HEK cells
Format: cell-based
Condition Context: HEK293
Answer with the value and then the unit.

Checklist item: cAMP tested on 5-hydroxytryptamine receptor 7 (Rattus norvegicus) (UniProt P32305), entry `COc1ccccc1N1CCN(CCCNS(=O)(=O)c2ccc(C)cc2)CC1` , value?
-20%

Another compound to look at: `COc1ccc(S(=O)(=O)NCCCN2CCc3cc(OC)ccc3C2)cc1`
-84%

Would you mind doing `CCN(CCCN1CCc2cc(OC)ccc2C1)S(=O)(=O)c1ccc(OC)cc1` as well?
-94%

Request: `CCN(CCCN1CCc2cc(OC)ccc2C1)S(=O)(=O)c1ccc(C)cc1`
-95%
